tested on: MS2 coat protein; test: apparent KD of MS2 coat protein; designed switch direction (-1 OFF switch, 1 ON switch): -1; higher = weaker reporter binding; conditions: Eterna round: R95; input ligand: none

biopolymer.sequence: AGAGCACAUGAGGAUCACCCAUGUCAGGAUAUGCAAGAAAGAAAGAAAGAAAGAAAGAGCAGAAGGGACAAAUA [?solved?] (puzzle: Exclusion 1)
unit.string: nM
apparent KD of MS2 coat protein: 43.2
//
biopolymer.sequence: UGUAGGUCUACCUUGGUGGAUCUGCAUUUUUGCAGGUGUACAUGAGGAUCACCCAUGUCCUCAUUUGCUCGUCUUAU [JL turnoff v2 99.31] (puzzle: Sensor v3, turn-off variant 2)
unit.string: nM
apparent KD of MS2 coat protein: 542
//
biopolymer.sequence: GAAUAUAAGCAAAGAUCCUACAUGAGGAUCACCCAUGUGCUCGUCUUAUAAAGUACUAUCACGAAAGUGAUAGUACA [Mat - Sensor v3 - turn-off var 1 - Eli Mod - D82] (puzzle: Sensor v3, turn-off variant 1)
unit.string: nM
apparent KD of MS2 coat protein: 135
//
biopolymer.sequence: UAAAAGGUAGGAUAUACGAAAAAAAAGGGUAGAAAAAAAACACAUGAGGAUCACCCAUGUAGAAGGACCAAAAG [salish99_ex2_r3_048] (puzzle: Exclusion 2)
unit.string: nM
apparent KD of MS2 coat protein: 30.1
//
biopolymer.sequence: GCAGUGCGAGGAUAUACAUGAGGAUCACCCAUGUGAGAAUAAGAAGUGAGGAAGAAAAGUAGAAGGCGCGUUGG [Mat - Exclusion 3 - Mod of Salish D66] (puzzle: Exclusion 3)
unit.string: nM
apparent KD of MS2 coat protein: 59.6

====

Here, each record is paired with measured apparent KD of MS2 coat protein data.
system: MS2 coat protein; assay: apparent KD of MS2 coat protein; higher = weaker reporter binding; conditions: Eterna round: R107; input ligand: arginine 13.2 mM
metric: apparent KD of MS2 coat protein (nM)

biopolymer.sequence: AAUCAUGGAAACAUGACAUGAGGAUUACUCCGAGGACCGGUACGGCCGCCACUCGCGAGGAGGCGGACAUGAGGAUCACCCAUGU [#03 Tryptophan A Same State]
number: 55.8
--
biopolymer.sequence: GGAAACCCGACGGCCGCCACUAACGGUCUCAAAAGAGGUUGAACACAUGAGGAUCACCCAUGUAAUAGGACCGGGUCGUGUGAAA [Design 1]
number: 17.9
--
biopolymer.sequence: AGCACUGUGACGGCCGCCACUACAUAAGAUGGGUGGUCAGGUUCAUUACAUGAGGAUCACCCAUGUAGGACCGGGUCUCAGUGCA [Omei Trp Exc B A v10]
number: 7.97
--
biopolymer.sequence: CCUGACAUGAGGAUCACCCAUGUGUGAGCACGAGGACCGGUACGGCCGCCACUCGCGUUGCCGGCCGGACUAUCUGGCGAAGUCA [theeternabot_sameState_MS2_Trp_A_10]
number: 28.3
--
biopolymer.sequence: ACAUGAGGAUCACCCAUGUACAUGAGGGAAGGAGCGGUACAUGUGCCAGGUAGGUCGCCCAACAGCAUCAGCCAUGUACAACGGA [xxbmullin]
number: 29
--
biopolymer.sequence: AACAUGAGGAUCACCCAUGUGUCCUCGAAACGAGGACCGGUACGGCCGCCACUCGGCGUAUGUUGACGAAAAGUCAGCAUACGCA [Mat - Exclusion - Trytophan A - D11]
number: 81.8
--
biopolymer.sequence: ACGGAUCGGAAACGAUCCGCGGCGAGGGUGCGAGGACCGGUACGGCCGCCACUCGGGUAACAUGAGGAUCACCCAUGUCCGAAGA [ETA NuPACK+Vienna+Vienna2 #10 Same Structure]
number: 35.8
--
biopolymer.sequence: AAAUAAAUACAUGAGGAUCACCCAUGUGAAGGAGCGGCCGUUAGGCCAGGUAGGUCGCACAUGAAAGGGAAGCGAAAGAAAUAAU [MAT - Exclusion Arginine A - Mod of Eli - D7]
number: 12.2
--
biopolymer.sequence: UCGUGUGUUUCGGAUACCAGUGUGGUCGAUACAUGAGGAUCACCCAUGUGAGAGGAGGUACACCCUUGGCAGCUGGCUGUUGCGG [qqwmullin]
number: 39.7
--
biopolymer.sequence: UCGCUCUGGGUGAAAUCCGGAGAUGUGGAAGGAGCGCUCGAAAGAGCAGGUAGGUCGCCAACGGACAUGAGGAUCACCCAUGUAC [Same State - Arginine A (Freestyle 20)]
number: 31
--
biopolymer.sequence: AGUAUCAGUGGAAGGAGCGUCGCGACUGCUACAUGAGGAUCACCCAUGUCGCCUUGAGCGCGACAGGUAGGUCGCCACGGUAGGC [SS-ArgB1]
number: 28.6
--
biopolymer.sequence: AAAACAAUCUGAAGGAGCGUCACAUGAGGAUCACCCAUGUACAUGAGGAUCACCCAUGUGUGACAGGUAGGUCGCAGAAAAUACC [Exclusion Arginine B GF 3]
number: 111
--
biopolymer.sequence: UUUGAUAGGACAGAUACCAGCGUGUUGUUGAACAUGAGGAUCACCCAUGUAGUGAUCGAGCGCCCUUGGCAGCUGGUUUGUUAGG [7.O]
number: 102
--
biopolymer.sequence: UUGACAUGAGGAUCACCCAUGUCAAAGGCACGAGGACCGGUACGGCCGCCACUCGUGGUCUAUGGCUGGUGGACUCGUGUCUCGG [Soisusdira]
number: 12.2
--
biopolymer.sequence: GAUAUGUUUCGAAGGAGCGGCCCUUGAUCCUCAUGAGACAUGAGGAUCACCCAUGUCUCGGGCCAGGUAGGUCGCGAAAUAUAUC [Astros-omei-mod4]
number: 30.3
--
biopolymer.sequence: GGGUGGUAGGCGGCCGCCACUGAUUUUUAUUUAUAGAUGACAUGAGGAUCACCCAUGUUUAUGUGCAGGACCGGGCCUGUUGUGG [aaaR]
number: 12.2
--
biopolymer.sequence: AGCGCGGUGAUGGUAGCCGGACGCUAGGUACGAGGACCGGUACGGCCGCCACUCGGAGUCCUACGACAUGAGGAUCACCCAUGUA [Same State Trp A GF16]
number: 61.2
--
biopolymer.sequence: CCAUGGUUGACGGCCGCCACUCAUUAGUCUUUGAGGUUGGCACAUGAGGAUCACCCAUGUCUGCAGAGGACCGGGUCUCGCCACA [theeternabot_sameState_MS2_Trp_B_15]
number: 39.8
--
biopolymer.sequence: GCGAACGGACCGUUGCCUUCCUGUGUGCGGCGAGGACCGGUACGGCCGCCACUCGACUGCGUACAUGAGGAUCACCCAUGUUAGA [theeternabot_exclusion_MS2_Trp_A_16]
number: 41.2
--
biopolymer.sequence: AACAUGAGGAUCACCCAUGUGUCCUCGAAACGAGGACCGGUACGGCCGCCACUCGACGUAUGUUGACGAAAAGUCAGCAUACGAA [Mat - Exclusion - Trytophan A - D12]
number: 112
--
biopolymer.sequence: AAACGUUGCUGCGAUACCAGACAUGAGGAUCACCCAUGUACCAAGGUAAAGAAAUAACGUGUCCCUUGGCAGCGCAGCAACGAAA [MAT - Exclusion Theophlline B - Mod of Eli - D12]
number: 8.7
--
biopolymer.sequence: AGCACUGUGACGGCCGCCACUACAUAUAGGGUGGUCAGGUUCAUAAUACAUGAGGAUCACCCAUGUAGGACCGGGUCUCAGUGCA [Omei Trp Exc B A v5]
number: 12.5

====

test system: K4 kissing-loop RNA reporter; assay: apparent KD of K4 kissing-loop reporter; higher = weaker reporter binding; details: Eterna round: R107; input ligand: tryptophan 2.4 mM;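 note: bound reporter read as fluorescence of individual clusters on recovered sequencing chips by microscopy, with normalized cluster intensities fitted with a binding model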
// label = Criterion met if apparent KD of K4 kissing-loop reporter is not less than 200 nM, otherwise Criterion not met

biopolymer.sequence: UUAGUCUAGAGAAGGAGCGAGUGAUGUUUGCUAAGCUAUAUAAUAAAAUAUAGCAAAUUUACUCAGGUAGGUCGCUCUAGACAUU [AK3 Exc Arginine B]
class.assignment: Criterion not met

biopolymer.sequence: GCCGUAGAUUGAAGGAGCGCCGCACAUGUCCCGCUUAGUGUAGUGAUGUUACAGUGUCAGCGGCAGGUAGGUCGCAAUCUACGGC
class.assignment: Criterion met

biopolymer.sequence: AGGCACGAGCAAGGAUAUCGAGUGGAGUGAUGUUCUGCCGACCCAGGACCGCAAGGUCCUGGGUCGCGAGAAGGUGCUCGUGCCU [#2 Same State - FMN A Attempt #5 (HarryS)]
class.assignment: Criterion met

biopolymer.sequence: GUUACGCAUGGAAGGAGCGCACUCCGAUUGGGCGACACAGUGAUGUUGUGGUUCGUUCGAAUGCAGGUAGGUCGCCAUGUGUAAC [Ex Arginine B K4 20]
class.assignment: Criterion not met

biopolymer.sequence: GAAUUAAUGUCUUUAAUAUAAUAAUCAGAUACCAGUGAUUUGUGACACCCUUGGCAGCUGUAUAGAGUGAUGUUCUUAUACAUAA [#12 K4 Theophylline A Exclusion]
class.assignment: Criterion met

biopolymer.sequence: CGCCGCAACUGAAGGAGCGCGCCAGUGAUGUUGGACGGCUUUGUCAAGGAAACUGCACCGGUGCAGGUAGGUCGCAGUUCGCGGU [Dilea]
class.assignment: Criterion met

biopolymer.sequence: AAGCAGUCACUCGCAGCCAUCGAAGAUGGGCGAGGACCGGUACGGCCGCCACUCGGAGUGAUGUUCCGCAGACUGCAAAAUAAAA
class.assignment: Criterion met

biopolymer.sequence: CGAGUCGGUUCAGAUACCAGCCAAUUAGAGUCGAGUGAUGUUCGACAAUGAACGUCCAAAGGCCCUUGGCAGCUGGAUUGGGAAC [Same State Theophylline B GF 20]
class.assignment: Criterion not met

biopolymer.sequence: CUAAGGGAAGCAGGAUAUCGGUAUUAGUGUGUUAAAUAAACACUCGGGUAGUGAUGUUGCCCGUGGCGAGAAGGGCUACCAUUGG [Laace]
class.assignment: Criterion not met

biopolymer.sequence: AGAUGGAAUAGAAGGAGCGGCGCCAGUGAUGUUGGAUGCCGCGGGUGAAUCAUGUCAUAGUGCCAGGUAGGUCGCUAUUUCAGCU [Beinveve]
class.assignment: Criterion not met
